// provenance: ChEMBL document CHEMBL1781905

pIC50: −log10 of the molar value.
The next entries give measured pIC50 for Mast/stem cell growth factor receptor Kit (Homo sapiens).

Past entries and their recorded results:
O=C(c1ccco1)N1N=C(c2cccnc2)CC1c1ccccc1O (stereo not drawn); < 5.00
O=C(c1ccc(Br)o1)N1N=C(c2cccnc2)CC1c1ccccc1O (stereo not drawn); < 5.00

# value of pIC50, Mast/stem cell growth factor receptor Kit (Homo sapiens), item O=C(c1ccc[nH]1)N1N=C(c2cccnc2)CC1c1ccccc1O (stereo not drawn) = < 5.00

====

target: Tyrosine-protein kinase Lck (Homo sapiens) (UniProt P06239)
Sequence (P06239 whole entry, looked up): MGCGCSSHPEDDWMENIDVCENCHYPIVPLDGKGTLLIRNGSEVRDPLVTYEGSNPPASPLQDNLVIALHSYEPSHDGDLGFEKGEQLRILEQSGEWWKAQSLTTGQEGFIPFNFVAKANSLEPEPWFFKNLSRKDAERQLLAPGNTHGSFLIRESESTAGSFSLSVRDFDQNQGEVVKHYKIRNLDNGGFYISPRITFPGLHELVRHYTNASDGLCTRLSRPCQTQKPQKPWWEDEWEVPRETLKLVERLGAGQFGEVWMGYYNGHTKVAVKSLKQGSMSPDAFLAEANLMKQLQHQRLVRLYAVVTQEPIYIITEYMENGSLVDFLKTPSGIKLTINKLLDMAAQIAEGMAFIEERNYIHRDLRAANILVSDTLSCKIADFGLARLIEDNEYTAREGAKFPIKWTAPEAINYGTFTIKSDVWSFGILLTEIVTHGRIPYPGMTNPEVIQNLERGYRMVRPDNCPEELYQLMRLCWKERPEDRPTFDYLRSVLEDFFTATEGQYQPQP
Measure: IC50

IC50 reading for O=C(c1ccco1)N1N=C(c2cccnc2)CC1c1ccccc1O (stereo unspecified) : > 10 µM

====

biological target: Serine/threonine-protein kinase B-raf (Homo sapiens, UniProt P15056, V600E); test: Inhibition of human B-Raf V600E mutant after 3 hrs
Sequence (P15056 2-766 V600E limits assumed): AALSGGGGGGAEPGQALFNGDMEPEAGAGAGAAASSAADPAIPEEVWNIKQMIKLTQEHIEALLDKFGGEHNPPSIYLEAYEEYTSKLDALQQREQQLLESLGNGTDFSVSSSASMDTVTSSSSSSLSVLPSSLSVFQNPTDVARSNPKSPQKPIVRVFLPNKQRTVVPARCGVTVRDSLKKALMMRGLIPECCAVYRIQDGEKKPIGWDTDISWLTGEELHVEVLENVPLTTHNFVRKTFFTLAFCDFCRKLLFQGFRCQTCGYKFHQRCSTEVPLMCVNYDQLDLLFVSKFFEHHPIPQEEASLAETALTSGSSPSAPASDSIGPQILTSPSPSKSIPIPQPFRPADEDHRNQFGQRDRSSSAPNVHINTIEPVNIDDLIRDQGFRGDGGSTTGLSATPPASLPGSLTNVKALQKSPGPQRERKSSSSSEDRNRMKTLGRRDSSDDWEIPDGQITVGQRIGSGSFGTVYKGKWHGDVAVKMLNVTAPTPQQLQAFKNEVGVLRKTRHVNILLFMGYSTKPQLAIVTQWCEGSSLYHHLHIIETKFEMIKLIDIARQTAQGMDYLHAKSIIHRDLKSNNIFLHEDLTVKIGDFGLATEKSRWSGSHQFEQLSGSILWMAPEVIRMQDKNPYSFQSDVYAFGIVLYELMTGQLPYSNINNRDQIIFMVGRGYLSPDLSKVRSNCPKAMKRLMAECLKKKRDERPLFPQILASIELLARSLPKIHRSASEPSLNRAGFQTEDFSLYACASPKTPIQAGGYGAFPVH
Measure: IC50 (nM)
// units = nM; emit number, no label

Past entries and their recorded results:
Cc1nc(-c2ccccc2)sc1C(=O)N1N=C(c2cccnc2)CC1c1ccccc1O (stereo not given); 37.9
N#Cc1ccccc1S(=O)(=O)N1N=C(c2cccnc2)CC1c1ccccc1O (stereo not given); 450
O=C(c1cccc(-n2cccn2)c1)N1N=C(c2cccnc2)CC1c1ccccc1O (stereo not given); 42
O=C(c1[nH]nc2c1CCC2)N1N=C(c2cccnc2)CC1c1ccccc1O (stereo not given); 7
O=C(c1cc(F)cc(C(F)(F)F)c1)N1N=C(c2cccnc2)CC1c1ccccc1O (stereo not given); 110

# value of IC50, Serine/threonine-protein kinase B-raf (Homo sapiens, UniProt P15056, V600E), item O=C(c1cc(-c2ccccc2)on1)N1N=C(c2cccnc2)CC1c1ccccc1O (stereo not given) = 8

# value of IC50, Serine/threonine-protein kinase B-raf (Homo sapiens, UniProt P15056, V600E), item O=C(c1cccs1)N1N=C(c2cccnc2)CC1c1ccccc1O (stereo not given) = 24.2

# value of IC50, Serine/threonine-protein kinase B-raf (Homo sapiens, UniProt P15056, V600E), item O=C(c1cn2c(n1)sc1ccccc12)N1N=C(c2cccnc2)CC1c1ccccc1O (stereo not given) = 9.1

# value of IC50, Serine/threonine-protein kinase B-raf (Homo sapiens, UniProt P15056, V600E), item O=C(c1ccc(-c2ccccc2)o1)N1N=C(c2cccnc2)CC1c1ccccc1O (stereo not given) = 16

====

assay: Inhibition of PKA
pIC50: −log10 of the molar value.
Measure: pIC50

pIC50 reading for O=C(c1ccco1)N1N=C(c2cccnc2)CC1c1ccccc1O (stereo unspecified) : < 5.00

====

molecular target: RAC-beta serine/threonine-protein kinase (Homo sapiens)
Sequence (P31751 whole entry): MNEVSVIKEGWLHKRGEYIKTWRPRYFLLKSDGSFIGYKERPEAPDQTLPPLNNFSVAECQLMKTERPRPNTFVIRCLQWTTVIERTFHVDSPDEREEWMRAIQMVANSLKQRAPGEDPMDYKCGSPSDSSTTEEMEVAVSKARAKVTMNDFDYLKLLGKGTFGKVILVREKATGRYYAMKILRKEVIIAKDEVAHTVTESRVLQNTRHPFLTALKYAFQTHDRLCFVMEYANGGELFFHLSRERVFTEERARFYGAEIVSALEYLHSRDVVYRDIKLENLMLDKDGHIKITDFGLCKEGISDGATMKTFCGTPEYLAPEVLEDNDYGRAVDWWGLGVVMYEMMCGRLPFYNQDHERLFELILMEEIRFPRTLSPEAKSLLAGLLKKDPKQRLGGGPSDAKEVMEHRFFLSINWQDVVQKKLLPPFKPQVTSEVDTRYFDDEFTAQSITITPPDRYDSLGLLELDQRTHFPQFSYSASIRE
pIC50: −log10 of the molar value.
Measure: pIC50

# value of pIC50, RAC-beta serine/threonine-protein kinase (Homo sapiens), item O=C(c1ccc(Br)o1)N1N=C(c2cccnc2)CC1c1ccccc1O (stereo unspecified) = < 5.00

====

biological target: Macrophage colony-stimulating factor 1 receptor (Homo sapiens)
Sequence (P07333 whole entry): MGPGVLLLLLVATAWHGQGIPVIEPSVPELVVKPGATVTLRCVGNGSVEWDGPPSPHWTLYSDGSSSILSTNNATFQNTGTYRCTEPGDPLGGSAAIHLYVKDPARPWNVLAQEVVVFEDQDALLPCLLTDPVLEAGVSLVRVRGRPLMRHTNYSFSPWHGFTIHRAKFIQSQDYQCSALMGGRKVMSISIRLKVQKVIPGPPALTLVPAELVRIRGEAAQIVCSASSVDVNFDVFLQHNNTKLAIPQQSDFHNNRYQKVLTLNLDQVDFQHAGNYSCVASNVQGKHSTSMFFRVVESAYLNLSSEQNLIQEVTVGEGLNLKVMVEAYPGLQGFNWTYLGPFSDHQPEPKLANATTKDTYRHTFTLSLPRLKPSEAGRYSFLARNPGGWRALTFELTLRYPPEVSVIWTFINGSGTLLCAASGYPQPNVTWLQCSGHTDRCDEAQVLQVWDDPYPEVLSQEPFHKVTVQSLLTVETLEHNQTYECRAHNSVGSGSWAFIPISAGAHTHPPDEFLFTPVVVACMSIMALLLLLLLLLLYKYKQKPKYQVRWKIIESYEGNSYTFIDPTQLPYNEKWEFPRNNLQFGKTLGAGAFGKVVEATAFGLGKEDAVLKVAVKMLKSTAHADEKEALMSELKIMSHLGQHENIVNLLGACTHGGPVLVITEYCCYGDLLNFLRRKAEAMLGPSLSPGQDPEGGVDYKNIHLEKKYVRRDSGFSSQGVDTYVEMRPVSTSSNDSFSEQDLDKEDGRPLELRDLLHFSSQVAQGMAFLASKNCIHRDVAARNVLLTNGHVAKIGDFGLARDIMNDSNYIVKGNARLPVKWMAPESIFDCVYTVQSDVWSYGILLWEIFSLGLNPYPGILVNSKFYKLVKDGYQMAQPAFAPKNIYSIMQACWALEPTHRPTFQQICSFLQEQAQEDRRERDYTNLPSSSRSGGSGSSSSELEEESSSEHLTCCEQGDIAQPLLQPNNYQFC
Measure: IC50

# value of IC50, Macrophage colony-stimulating factor 1 receptor (Homo sapiens), item O=C(c1cccs1)N1N=C(c2cccnc2)CC1c1ccccc1O (stereo unspecified) = > 10 µM

====

IC50 values, listed per item
target: Receptor-type tyrosine-protein kinase FLT3 (Homo sapiens)
Sequence (P36888 whole entry): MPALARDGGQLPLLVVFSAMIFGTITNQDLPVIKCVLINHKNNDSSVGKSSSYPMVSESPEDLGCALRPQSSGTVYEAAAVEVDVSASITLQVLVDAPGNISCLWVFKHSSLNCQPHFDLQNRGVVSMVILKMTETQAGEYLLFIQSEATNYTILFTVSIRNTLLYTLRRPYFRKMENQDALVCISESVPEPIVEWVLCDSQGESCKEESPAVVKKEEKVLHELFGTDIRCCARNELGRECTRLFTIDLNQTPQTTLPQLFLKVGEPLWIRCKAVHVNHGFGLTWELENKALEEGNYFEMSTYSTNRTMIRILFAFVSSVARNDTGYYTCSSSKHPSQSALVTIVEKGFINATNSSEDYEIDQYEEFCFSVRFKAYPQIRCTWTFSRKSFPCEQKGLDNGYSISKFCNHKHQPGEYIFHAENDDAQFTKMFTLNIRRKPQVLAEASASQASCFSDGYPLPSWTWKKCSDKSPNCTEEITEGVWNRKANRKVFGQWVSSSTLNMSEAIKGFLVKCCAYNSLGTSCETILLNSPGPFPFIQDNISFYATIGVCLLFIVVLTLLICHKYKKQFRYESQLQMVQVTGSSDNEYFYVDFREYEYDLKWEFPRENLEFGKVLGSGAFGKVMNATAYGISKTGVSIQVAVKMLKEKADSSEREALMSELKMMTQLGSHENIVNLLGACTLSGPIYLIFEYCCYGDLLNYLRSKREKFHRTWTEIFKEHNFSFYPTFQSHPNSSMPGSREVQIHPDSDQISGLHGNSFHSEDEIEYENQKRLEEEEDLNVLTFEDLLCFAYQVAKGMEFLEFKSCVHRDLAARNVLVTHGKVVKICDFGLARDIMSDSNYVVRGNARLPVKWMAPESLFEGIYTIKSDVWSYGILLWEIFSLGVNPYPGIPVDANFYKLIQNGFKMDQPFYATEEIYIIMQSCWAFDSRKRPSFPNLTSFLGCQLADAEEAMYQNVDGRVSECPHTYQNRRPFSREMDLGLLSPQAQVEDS

Past entries and their recorded results:
O=C(c1cccs1)N1N=C(c2cccnc2)CC1c1ccccc1O (stereo not drawn); > 10 µM
O=C(c1ccc(Br)o1)N1N=C(c2cccnc2)CC1c1ccccc1O (stereo not drawn); > 10 µM

Could you now consider this next compound?
# value of IC50, Receptor-type tyrosine-protein kinase FLT3 (Homo sapiens), item O=C(c1ccc[nH]1)N1N=C(c2cccnc2)CC1c1ccccc1O (stereo not drawn) = > 10 µM

====

experiment: Inhibition of CK2
Measure: IC50

IC50 reading for O=C(c1ccco1)N1N=C(c2cccnc2)CC1c1ccccc1O (stereo unspecified) : > 10 µM

====

target: Serine/threonine-protein kinase B-raf (Homo sapiens, UniProt P15056, V600E); experiment: Inhibition of human B-Raf V600E mutant after 3 hrs
IC50 values, listed per item
// units = nM; emit number, no label

Past entries and their recorded results:
CCOc1cccc2cc(C(=O)N3N=C(c4cccnc4)CC3c3ccccc3O)oc12 (stereo not given); 25.7
O=C(c1cc(-c2ccccc2)no1)N1N=C(c2cccnc2)CC1c1ccccc1O (stereo not given); 8
Cc1nc(-c2cccnc2)sc1C(=O)N1N=C(c2cccnc2)CC1c1ccccc1O (stereo not given); 8.1
O=C(c1cc(-c2ccc3c(c2)OCCO3)n[nH]1)N1N=C(c2cccnc2)CC1c1ccccc1O (stereo not given); 10.7
O=C(c1ccc(F)c(C(F)(F)F)c1)N1N=C(c2cccnc2)CC1c1ccccc1O (stereo not given); 200
O=C(c1ccc(-c2ccccc2)[nH]1)N1N=C(c2cccnc2)CC1c1ccccc1O (stereo not given); 41.5
O=C(c1cccc(Oc2ccccc2)c1)N1N=C(c2cccnc2)CC1c1ccccc1O (stereo not given); 156
O=C(c1ccc(Br)o1)N1N=C(c2cccnc2)CC1c1ccccc1O (stereo not given); 7.9

IC50 reading for O=C(c1ccc(-c2cccnc2)s1)N1N=C(c2cccnc2)CC1c1ccccc1O (single isomer, unassigned; early eluting) : 1200

IC50 reading for O=C(CC1CC1)N1N=C(c2cccnc2)CC1c1ccccc1O (stereo not given) : 83

====

molecular target: UniProt P06493
Sequence (P06493 whole entry): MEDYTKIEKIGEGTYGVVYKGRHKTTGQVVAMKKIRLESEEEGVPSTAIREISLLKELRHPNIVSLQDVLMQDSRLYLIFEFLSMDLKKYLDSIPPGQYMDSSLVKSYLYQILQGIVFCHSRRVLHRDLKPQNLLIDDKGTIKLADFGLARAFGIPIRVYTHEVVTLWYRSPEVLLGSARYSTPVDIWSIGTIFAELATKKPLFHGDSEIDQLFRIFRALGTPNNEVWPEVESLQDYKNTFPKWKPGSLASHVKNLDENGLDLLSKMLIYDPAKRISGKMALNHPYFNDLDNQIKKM
Measure: IC50

IC50 reading for O=C(c1ccco1)N1N=C(c2cccnc2)CC1c1ccccc1O (stereo unspecified) : > 10 µM

====

molecular target: UniProt P11362
Sequence (P11362 whole entry): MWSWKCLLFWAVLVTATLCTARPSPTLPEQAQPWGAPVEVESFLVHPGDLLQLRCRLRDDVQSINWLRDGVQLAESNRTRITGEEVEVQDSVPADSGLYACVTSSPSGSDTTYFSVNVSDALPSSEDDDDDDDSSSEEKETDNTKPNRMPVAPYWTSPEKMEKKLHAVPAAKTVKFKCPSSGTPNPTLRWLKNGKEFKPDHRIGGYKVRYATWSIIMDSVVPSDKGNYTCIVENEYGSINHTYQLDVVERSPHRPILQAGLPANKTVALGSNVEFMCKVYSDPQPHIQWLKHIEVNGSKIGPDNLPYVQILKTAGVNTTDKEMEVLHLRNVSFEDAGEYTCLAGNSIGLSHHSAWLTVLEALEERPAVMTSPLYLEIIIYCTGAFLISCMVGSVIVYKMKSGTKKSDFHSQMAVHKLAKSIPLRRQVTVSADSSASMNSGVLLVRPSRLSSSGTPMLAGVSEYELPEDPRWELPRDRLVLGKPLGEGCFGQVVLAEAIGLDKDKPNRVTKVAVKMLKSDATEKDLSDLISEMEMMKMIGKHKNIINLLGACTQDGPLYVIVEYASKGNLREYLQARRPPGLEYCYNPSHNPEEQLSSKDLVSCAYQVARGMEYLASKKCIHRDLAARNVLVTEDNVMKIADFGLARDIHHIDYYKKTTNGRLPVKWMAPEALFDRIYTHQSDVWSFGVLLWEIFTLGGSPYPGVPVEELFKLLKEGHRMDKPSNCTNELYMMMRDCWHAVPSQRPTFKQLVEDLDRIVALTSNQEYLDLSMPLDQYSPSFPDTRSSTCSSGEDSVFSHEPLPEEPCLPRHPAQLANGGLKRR
Measure: IC50

O=C(c1ccc(Br)o1)N1N=C(c2cccnc2)CC1c1ccccc1O (configuration not stated); > 10 µM

Could you now consider this next compound?
IC50 reading for O=C(c1cccc(-n2cccn2)c1)N1N=C(c2cccnc2)CC1c1ccccc1O (configuration not stated) : > 10 µM

====

biological target: Serine/threonine-protein kinase B-raf (Homo sapiens, UniProt P15056, V600E); assay: Inhibition of human B-Raf V600E mutant after 3 hrs
Binary label based on IC50 with cut-off 20 nM: below gives y, not below gives n.

Below are worked cases with known answers.
O=C(c1ccc(-c2cccnc2)s1)N1N=C(c2cccnc2)CC1c1ccccc1O (single isomer, unassigned; later eluting); y
O=C(c1cc(-c2cccs2)n[nH]1)N1N=C(c2cccnc2)CC1c1ccccc1O (centres undefined); y

Below 20 nM on IC50? Entry O=C(c1cc(-c2ccco2)on1)N1N=C(c2cccnc2)CC1c1ccccc1O (centres undefined) y

Below 20 nM on IC50? Entry O=C(c1ccccc1Oc1ccccc1)N1N=C(c2cccnc2)CC1c1ccccc1O (centres undefined) n

Below 20 nM on IC50? Entry COc1cccc(-c2cc(C(=O)N3N=C(c4cccnc4)CC3c3ccccc3O)no2)c1 (centres undefined) y

====

target: Serine/threonine-protein kinase B-raf (Homo sapiens, UniProt P15056, V600E); assay: Inhibition of B-Raf V600E mutant-mediated ERK phosphorylation in human A375 cells after 3 hrs by immunoblotting method; format: cell-based, A-375; details: in the assay text read “whole cell ELISA” for “immunoblotting method”
Binary label based on IC50 with cut-off 1000 nM: below gives class 1, not below gives class 0.

Below are worked cases with known answers.
COc1ccc(-c2cc(C(=O)N3N=C(c4cccnc4)CC3c3ccccc3O)no2)cc1 (stereo not given); class 1
O=C(c1cc(-c2ccccc2)on1)N1N=C(c2cccnc2)CC1c1ccccc1O (stereo not given); class 1
O=C(c1ccc(-c2cccnc2)s1)N1N=C(c2cccnc2)CC1c1ccccc1O (stereo not given); class 1
O=C(c1ccc(-c2ccccc2)[nH]1)N1N=C(c2cccnc2)CC1c1ccccc1O (stereo not given); class 0

We next turn to a different compound, shown below.
Below 1000 nM on IC50? Entry O=C(c1ccc(-c2ccccc2)o1)N1N=C(c2cccnc2)CC1c1ccccc1O (stereo not given) class 0

====

biological target: Serine/threonine-protein kinase B-raf (Homo sapiens, UniProt P15056, V600E); experiment: Inhibition of human B-Raf V600E mutant after 3 hrs
Measure: IC50 (µM)
// units = µM; emit number, no label

Past entries and their recorded results:
O=C(c1ccc[nH]1)N1N=C(c2cccnc2)CC1c1ccccc1O (stereo not given); 0.0226
O=C(c1ccc([N+](=O)[O-])o1)N1N=C(c2cccnc2)CC1c1ccccc1O (stereo not given); 0.13
O=C(c1cc(-c2ccc3c(c2)OCO3)on1)N1N=C(c2cccnc2)CC1c1ccccc1O (stereo not given); 0.0086
O=C(c1ccc(C(F)(F)F)c(F)c1)N1N=C(c2cccnc2)CC1c1ccccc1O (stereo not given); 0.66

Could you now consider this next molecule?
IC50 reading for O=C(c1ccc(-c2cccnc2)s1)N1N=C(c2cccnc2)CC1c1ccccc1O (stereo not given) : 0.0187

====

target: Serine/threonine-protein kinase B-raf (Homo sapiens, UniProt P15056, V600E); experiment: Inhibition of B-Raf V600E mutant-mediated ERK phosphorylation in human A375 cells after 3 hrs by immunoblotting method; type: cell-based, A-375; conditions: in the assay text read “whole cell ELISA” for “immunoblotting method”
pIC50: −log10 of the molar value.
Assign 1 whenever pIC50 does not fall below 6; assign -1 whenever it does.

O=C(c1cncc(-c2cccs2)c1)N1N=C(c2cccnc2)CC1c1ccccc1O (centres undefined); -1
O=C(c1cc(-c2ccc3c(c2)OCO3)on1)N1N=C(c2cccnc2)CC1c1ccccc1O (centres undefined); 1
O=C(c1cc(-c2ccc3c(c2)OCCO3)n[nH]1)N1N=C(c2cccnc2)CC1c1ccccc1O (centres undefined); 1
O=C(c1ccc(-c2cccnc2)s1)N1N=C(c2cccnc2)CC1c1ccccc1O (single isomer, unassigned; early eluting); -1
O=C(c1ccc[nH]1)N1N=C(c2cccnc2)CC1c1ccccc1O (centres undefined); -1
O=C(c1cc(-c2ccccc2O)on1)N1N=C(c2cccnc2)CC1c1ccccc1O (centres undefined); 1
O=C(c1cc(F)cc(C(F)(F)F)c1)N1N=C(c2cccnc2)CC1c1ccccc1O (centres undefined); -1
O=C(c1ccc(F)c(C(F)(F)F)c1)N1N=C(c2cccnc2)CC1c1ccccc1O (centres undefined); -1
O=C(c1cn2c(n1)sc1ccccc12)N1N=C(c2cccnc2)CC1c1ccccc1O (centres undefined); 1
O=C(c1ccc(-c2cccnc2)s1)N1N=C(c2cccnc2)CC1c1ccccc1O (single isomer, unassigned; later eluting); 1

We next turn to a different molecule, shown below.
Has O=C(c1cc(-c2cccs2)n[nH]1)N1N=C(c2cccnc2)CC1c1ccccc1O (centres undefined) a recorded pIC50 greater than or equal to 6? 1
